Recorded EC50, one value per entry.
system_tested: NAMPT enzyme (Homo sapiens (Human), UniProt P43490)
Sequence (P43490 whole entry, species assumed): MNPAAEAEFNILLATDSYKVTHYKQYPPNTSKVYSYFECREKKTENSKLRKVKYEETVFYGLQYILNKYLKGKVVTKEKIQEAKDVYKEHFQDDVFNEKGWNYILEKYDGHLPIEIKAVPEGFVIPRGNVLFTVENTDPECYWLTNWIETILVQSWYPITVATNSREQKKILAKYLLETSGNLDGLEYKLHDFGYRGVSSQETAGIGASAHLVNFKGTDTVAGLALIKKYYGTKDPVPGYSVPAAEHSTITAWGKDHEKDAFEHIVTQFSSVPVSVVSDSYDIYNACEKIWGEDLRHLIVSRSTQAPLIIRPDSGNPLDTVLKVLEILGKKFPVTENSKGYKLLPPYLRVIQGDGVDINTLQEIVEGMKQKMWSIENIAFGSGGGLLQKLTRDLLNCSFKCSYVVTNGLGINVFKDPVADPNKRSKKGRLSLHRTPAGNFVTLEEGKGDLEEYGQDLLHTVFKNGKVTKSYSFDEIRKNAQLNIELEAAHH
test_description: Enzyme Assay and NMN Detection (NAMPT reaction, fluorescence detection of NMN)
Type: biochemical
condition_parameters: Table B-5; NAMPT activation, NMN formation

Reference set, count: 3
>>> assay_result("O=C(NCc1cnco1)Nc1ccc(S(=O)(=O)c2ccc(F)cc2)cc1")
"100 to 2000 nM"
>>> assay_result("Cc1cccc(S(=O)(=O)c2ccc(NC(=O)NCc3cnco3)cc2)c1")
"100 to 2000 nM"
>>> assay_result("O=C(NCc1cnco1)Nc1ccc(S(=O)(=O)c2ccccc2-c2ccccc2)cc1")
"< 100 nM"

I'd like to know its EC50. The compound in question is O=C(NCc1cnco1)Nc1ccc(-c2cccc3scnc23)cc1 100 to 2000 nM

I'd like to know its EC50. The compound in question is O=C(NCc1cnco1)Nc1ccc(S(=O)(=O)c2ccc(F)c(F)c2)cc1 100 to 2000 nM

I'd like to know its EC50. The compound in question is O=C(NCc1cnco1)Nc1ccc(S(=O)(=O)c2cnccn2)cc1 100 to 2000 nM

I'd like to know its EC50. The compound in question is O=C(NCc1cnco1)Nc1ccc(S(=O)(=O)c2cccnc2)cc1 100 to 2000 nM

I'd like to know its EC50. The compound in question is O=C(NCc1cnco1)Nc1ccc(S(=O)(=O)c2ccc(Cl)cc2)cc1 100 to 2000 nM

I'd like to know its EC50. The compound in question is Cn1nc(-c2ccc(NC(=O)NCc3cnco3)cc2)c2cccnc21 2000 to 5000 nM

I'd like to know its EC50. The compound in question is Cc1ccc(S(=O)(=O)c2ccc(NC(=O)NCc3cnco3)cc2)cn1 100 to 2000 nM
